Sourced from the supplement of paper PMC10567573

B1: WDFY1 (parent)
chain: FWNIKQMWDTKTLGLRQHHCRKCG

variants of: B1; assay: protein stability index of a GFP-peptide fusion (GPS, HEK-293T) (PSI 1-6); higher = more stable; conditions: c terminus: a fixed tail appended;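 further: lentivirally expressed fusions sorted by FACS into six bins by GFP to DsRed ratio, PSI derived from sequencing read proportions per bin multiplied by bin number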
Measured parameter: protein stability index
Keep it simple and answer with nothing but the number.

## Input Given the entry W2V , report its measured protein stability index.
## Output 2.71

## Input H18E , same question.
## Output 2.21

## Input K11D , same question.
## Output 2.37

## Input W8T , same question.
## Output 2.52

## Input D9K , same question.
## Output 1.33

## Input W2D , same question.
## Output 2.19

## Input G14C , same question.
## Output 2.27

## Input K22N , same question.
## Output 1.99

## Input L13A , same question.
## Output 2.01

## Input L15S , same question.
## Output 2.95

## Input I4Q , same question.
## Output 3.12

## Input D9Y , same question.
## Output 1.89

## Input W2I , same question.
## Output 2.41

## Input G14Q , same question.
## Output 2.54

## Input Q17W , same question.
## Output 2.02

## Input W2C , same question.
## Output 1.14

## Input L15P , same question.
## Output 1.55

## Input W8C , same question.
## Output 2.54

## Input C20V , same question.
## Output 2.2

## Input F1H , same question.
## Output 2.36

## Input T10C , same question.
## Output 2.11

## Input Q6I , same question.
## Output 2.45
